# Measurement notes: protein stability index of a GFP-peptide fusion (GPS, HEK-293T) (PSI 1-6); higher = more stable;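 note: 24-mer peptide tiles fused after GFP, lentivirally expressed, FACS-sorted into six equal bins by GFP/DsRed ratio, decoded by Illumina sequencing, PSI is the read-weighted mean bin number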
# Cond: treatment: DMSO; c terminus: a fixed tail appended
Known protein stability index of a selection of sequences
Give the figure only, with no unit attached.

Sample answers from the record:
{"Seq": "VLTDSNHVPLQRLSLLVHNVSVMH [FBXO33]", "protein stability index": 1.96}
{"Seq": "KRASAPTFDNDYSLSELLSQLDSG [RIPK4]", "protein stability index": 3.75}
{"Seq": "HAPQISYTGPSSSGRFAGREWYYG [NCK2]", "protein stability index": 2.52}
{"Seq": "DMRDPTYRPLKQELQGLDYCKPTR [SPSB1]", "protein stability index": 3.76}

Next, consider the following sequence.
# input sequence: FVNDLTVTQDGRKIYFTDSSSKWQ [APMAP] ; wanted: its protein stability index
2.8

---

# Measurement notes: protein stability index of a GFP-peptide fusion (GPS, HEK-293T) (PSI 1-6); higher = more stable
# Cond: treatment: DMSO; c terminus: a fixed tail appended
The recorded protein stability index of each item maps onto one of these classes: low bin: < 3; mid bin: ≥ 3 and < 4; high bin: ≥ 4

{"Seq": "VQHQRVHTGEKPYKCLECGKAFSQ [ZNF24]", "Classification": "mid bin"}
{"Seq": "AGEGLVRSANGFPYREDEEGAFGE [MAP2]", "Classification": "high bin"}

Kindly state the category for this sequence: FGFFFGRTPLIKLSPKKTWEGFIG [CDS1]
low bin

Kindly state the category for this sequence: LMRAQRNYMVQTEDQYIFIHDALL [PTPRD]
low bin

Kindly state the category for this sequence: HILAAEQLSRDSTLGGKAFHITND [NSDHL]
mid bin

Kindly state the category for this sequence: QNIYKCIMLKNISQDERLDVLLTL [IQUB]
low bin

Kindly state the category for this sequence: ILDTAGQAEFTAMRDQYMRAGEGF [RIT1]
mid bin

Kindly state the category for this sequence: SAASTSFQPQPVQPQQGYIPPMAQ [ZNF207]
high bin

Kindly state the category for this sequence: ASGNATQTESGSEEVSSTVHIETF [C10orf62]
high bin

Kindly state the category for this sequence: PSFHPHAGGGSQENLDNDTETDSL [DVL3]
high bin

Kindly state the category for this sequence: LSLEAVICFKEMLANSWNCLPKHL [KLHDC2]
low bin

Kindly state the category for this sequence: GKSPDTNYLFMGDYVDRGYYSVET [PPP2CA]
low bin

Kindly state the category for this sequence: RGRYRQYNSEILEEAISVVMSGKM [LCOR]
low bin

---

# Measurement notes: protein stability index of a GFP-peptide fusion (GPS, HEK-293T) (PSI 1-6); higher = more stable
# Cond: treatment: DMSO; c terminus: a fixed tail appended
Assign MET whenever protein stability index does not fall below 3; assign NOT MET whenever it does.

As a guide, the following entries are already answered.
{"Seq": "LPVGGRLPGPTRPVLGRRAVGGRL [HAGHL]", "Classification": "MET"}
{"Seq": "LGSDDINVVTCAAGILSNLTCNNY [CTNNB1]", "Classification": "NOT MET"}
{"Seq": "KITDFQLHASTVKRYGLGAHRGRL [CPXM2]", "Classification": "MET"}
{"Seq": "QVMVSGPNLNETSIVSGGYGGSGD [ARFIP2]", "Classification": "MET"}
{"Seq": "AFVLSSNSLKHCTELELFKATCRW [KLHL13]", "Classification": "NOT MET"}

Now look at this one.
Is protein stability index for GPAAAAAPSLEAPKPSGLEPGPAA [KCTD13] at or above 3?
MET
